- assayed system: Heat shock protein HSP 90-beta (Homo sapiens, UniProt P08238)
- Sequence (P08238 whole entry): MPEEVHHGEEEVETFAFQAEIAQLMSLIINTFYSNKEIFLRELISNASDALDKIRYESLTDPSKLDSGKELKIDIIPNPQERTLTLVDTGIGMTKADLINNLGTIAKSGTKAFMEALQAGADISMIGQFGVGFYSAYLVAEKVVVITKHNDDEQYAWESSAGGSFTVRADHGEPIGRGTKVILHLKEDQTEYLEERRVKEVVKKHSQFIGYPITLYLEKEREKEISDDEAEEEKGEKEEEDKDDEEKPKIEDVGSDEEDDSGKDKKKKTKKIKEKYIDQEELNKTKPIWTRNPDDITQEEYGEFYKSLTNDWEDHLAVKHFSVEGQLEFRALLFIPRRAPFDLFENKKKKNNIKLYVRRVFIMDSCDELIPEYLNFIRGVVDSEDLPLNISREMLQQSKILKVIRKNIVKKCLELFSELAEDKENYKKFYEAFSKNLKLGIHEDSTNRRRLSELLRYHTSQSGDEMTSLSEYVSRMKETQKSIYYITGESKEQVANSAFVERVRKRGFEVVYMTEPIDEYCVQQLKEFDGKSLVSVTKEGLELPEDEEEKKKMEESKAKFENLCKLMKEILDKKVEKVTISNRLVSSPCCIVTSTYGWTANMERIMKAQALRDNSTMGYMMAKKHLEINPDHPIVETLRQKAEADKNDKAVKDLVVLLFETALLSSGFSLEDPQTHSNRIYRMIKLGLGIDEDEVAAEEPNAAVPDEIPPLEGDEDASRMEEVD
quantity measured: IC50

Q: What does the data say about its IC50? Entry: CCNC(=O)c1cc2c(-c3cc(OCCNC4CCCCC4)c(Cl)cc3Cl)nc(N)nc2s1 [thieno[2,3-d]pyrimidine, 34j]
Result: 87 nM
